- target-entity: ~100 representative kinases (Homo sapiens)
- Construct: Recombinant protein kinase domains with a concentration of 2 μM
- Sequence (O14733 1-419): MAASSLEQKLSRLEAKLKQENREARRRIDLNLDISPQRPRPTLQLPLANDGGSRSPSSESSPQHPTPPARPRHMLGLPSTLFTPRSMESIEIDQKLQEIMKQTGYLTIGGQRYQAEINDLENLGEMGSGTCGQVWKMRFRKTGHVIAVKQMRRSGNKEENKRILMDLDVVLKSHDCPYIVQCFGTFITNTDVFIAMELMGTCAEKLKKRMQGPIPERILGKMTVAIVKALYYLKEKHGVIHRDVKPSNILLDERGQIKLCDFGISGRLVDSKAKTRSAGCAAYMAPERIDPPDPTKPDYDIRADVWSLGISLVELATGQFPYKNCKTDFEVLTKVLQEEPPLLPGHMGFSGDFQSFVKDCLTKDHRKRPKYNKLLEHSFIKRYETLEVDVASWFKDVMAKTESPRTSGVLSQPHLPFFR
- procedure-details: DSF 100 kinase selectivity screen;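 further: compound tested at 20 µM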
- Format: binding
- condition-details: protein MAP2K7; average of three replicates
readout: dTm (K)

| record-smiles | target-entity | number |
| --- | --- | --- |
| O=C(Nc1cccc(-c2c[nH]c3ncnc(N4CCOCC4)c23)c1)C1(C(=O)Nc2ccc(F)c(Cl)c2)CC1 | ~100 representative kinases (Homo sapiens) | 5.35 |
| Cc1ccc(-n2nc(C(C)(C)C)cc2NC(=O)Nc2cccc(-c3c[nH]c4ncnc(N5CCOCC5)c34)c2)cc1 | ~100 representative kinases (Homo sapiens) | 4.70 |

I. COc1cc(NC(=O)C2(C(=O)Nc3cccc(-c4c[nH]c5ncnc(N6CCOCC6)c45)c3)CC2)ccc1F
II. COc1ccc(NC(=O)C2(C(=O)Nc3cccc(-c4c[nH]c5ncnc(N6CCOCC6)c45)c3)CC2)cc1
III. COc1cc(C(=O)N2CCOCC2)c(F)cc1Nc1nc(N(C)C)c2c(Cl)c[nH]c2n1
Query: Order the 3 compounds from highest to lowest dTm. Please respond by ranking the labels in the order requested.
Reply: I, III, II
(I: 4.61 K, III: 2.56 K, II: 0.55 K)

###

- target-entity: ~100 representative kinases (Homo sapiens, UniProt Q13873)
- Construct: Recombinant protein kinase domains with a concentration of 2 μM
- Sequence (Q13873 27-1038): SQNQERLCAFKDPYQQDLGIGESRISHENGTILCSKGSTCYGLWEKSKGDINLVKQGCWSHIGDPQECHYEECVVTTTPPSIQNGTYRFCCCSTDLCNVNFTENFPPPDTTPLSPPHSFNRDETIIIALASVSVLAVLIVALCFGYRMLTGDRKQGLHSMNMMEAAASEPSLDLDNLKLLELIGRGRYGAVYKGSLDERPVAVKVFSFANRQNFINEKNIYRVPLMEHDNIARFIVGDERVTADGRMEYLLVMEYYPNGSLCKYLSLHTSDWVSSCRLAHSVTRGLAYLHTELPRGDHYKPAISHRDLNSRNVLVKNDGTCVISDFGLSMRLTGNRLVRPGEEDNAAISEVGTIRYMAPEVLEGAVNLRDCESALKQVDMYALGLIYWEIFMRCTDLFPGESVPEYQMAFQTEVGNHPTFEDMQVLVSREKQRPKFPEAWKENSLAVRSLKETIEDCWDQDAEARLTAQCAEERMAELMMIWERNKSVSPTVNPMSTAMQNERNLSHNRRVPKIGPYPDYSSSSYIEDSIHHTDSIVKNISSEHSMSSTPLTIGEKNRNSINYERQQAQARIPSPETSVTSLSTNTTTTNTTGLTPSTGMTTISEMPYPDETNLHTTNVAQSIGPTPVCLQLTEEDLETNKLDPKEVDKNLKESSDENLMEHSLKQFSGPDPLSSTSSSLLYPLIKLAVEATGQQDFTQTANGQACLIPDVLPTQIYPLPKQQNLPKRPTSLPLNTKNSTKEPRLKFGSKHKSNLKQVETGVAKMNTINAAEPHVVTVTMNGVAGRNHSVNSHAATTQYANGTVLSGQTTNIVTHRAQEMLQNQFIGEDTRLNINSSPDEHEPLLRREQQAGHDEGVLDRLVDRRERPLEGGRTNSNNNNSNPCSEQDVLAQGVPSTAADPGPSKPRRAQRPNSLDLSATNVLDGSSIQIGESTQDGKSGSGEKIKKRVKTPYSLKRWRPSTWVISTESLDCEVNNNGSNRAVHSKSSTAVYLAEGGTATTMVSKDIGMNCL
- procedure-details: DSF 100 kinase selectivity screen;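 further: compound tested at 20 µM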
- Format: binding
- condition-details: Protein BMPR2; average of three replicates
readout: dTm (K)

Take a look at these entries with their results.
| compound | readout | quantity-unit | number |
| --- | --- | --- | --- |
| Cn1cc(-c2c[nH]c3ncnc(N4CCOCC4)c23)cc1C#N [PFE-360] | dTm | K | 2.89 |
| C[C@@H]1CN(c2cc(-c3n[nH]c4ccc(OC5(C)CC5)cc34)ncn2)C[C@H](C)O1 [MLi2] | dTm | K | 0.0116 |

I. O=C(Nc1cccc(-c2c[nH]c3ncnc(N4CCOCC4)c23)c1)c1cccn(-c2ccc(F)cc2)c1=O [Compound 4]
II. O=C(Nc1cccc(-c2c[nH]c3ncnc(N4CCOCC4)c23)c1)C1(C(=O)Nc2cccc3c2CCC3)CC1 [Compound 11]
Query: Which gives the smaller dTm number: I or II ? Let me know the label of the one you choose.
Reply: II

###

- target-entity: ~100 representative kinases (Homo sapiens)
- Construct: Recombinant protein kinase domains with a concentration of 2 μM
- Sequence (O94768 1-372): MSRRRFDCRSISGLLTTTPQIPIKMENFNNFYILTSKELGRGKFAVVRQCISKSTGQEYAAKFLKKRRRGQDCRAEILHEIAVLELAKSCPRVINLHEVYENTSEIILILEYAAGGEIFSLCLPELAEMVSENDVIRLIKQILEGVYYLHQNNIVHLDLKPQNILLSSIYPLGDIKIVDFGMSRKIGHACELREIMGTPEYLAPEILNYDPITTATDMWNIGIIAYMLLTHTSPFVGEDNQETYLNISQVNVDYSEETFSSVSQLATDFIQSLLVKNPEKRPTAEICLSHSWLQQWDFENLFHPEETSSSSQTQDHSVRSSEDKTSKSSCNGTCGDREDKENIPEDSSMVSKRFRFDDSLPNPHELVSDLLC
- procedure-details: DSF 100 kinase selectivity screen;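 further: compound tested at 20 µM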
- Type: binding
- condition-details: Protein STK17B; DSF; average of three replicates
readout: dTm (K)

Worked cases, answers included:
| molecule | quantity-unit | dTm |
| --- | --- | --- |
| CCc1ccc(NC(=O)C2(C(=O)Nc3cccc(-c4c[nH]c5ncnc(N6CCOCC6)c45)c3)CC2)cc1 | K | 6.64 |
| O=C(Nc1ccccc1)C1(C(=O)Nc2cccc(-c3c[nH]c4ncnc(N5CCOCC5)c34)c2)CC1 | K | 7.92 |
| Cc1cc(NC(=O)C2(C(=O)Nc3cccc(-c4c[nH]c5ncnc(N6CCOCC6)c45)c3)CC2)ccc1F | K | 10.15 |

I. CC(C)(C)c1cc(NC(=O)Nc2cccc(-c3c[nH]c4ncnc(N5CCOCC5)c34)c2)n(-c2ccc3ncccc3c2)n1
II. O=C(Nc1cccc(-c2c[nH]c3ncnc(N4CCOCC4)c23)c1)C1(C(=O)Nc2cc(Br)c(F)cc2F)CC1
Query: Which item exceeds the other in dTm, I or II ? Record your answer as the label of the chosen record.
Reply: I
(I: 9.72 K, II: 0.00 K)

P. COc1cc(S(C)(=O)=O)ccc1Nc1nc(N(C)C)c2c(Cl)c[nH]c2n1
Q. Cc1ccc(NC(=O)C2(C(=O)Nc3cccc(-c4c[nH]c5ncnc(N6CCOCC6)c45)c3)CC2)cc1
R. O=C(Nc1cccc(-c2c[nH]c3ncnc(N4CCOCC4)c23)c1)C1(C(=O)Nc2ccc(F)c(Br)c2F)CC1
Query: Please list these molecules in decreasing order of dTm. Give the labels in the order specified.
Reply: P, Q, R
(P: 9.71 K, Q: 4.70 K, R: 0.00 K)

1. O=C(Nc1cccc(-c2c[nH]c3ncnc(N4CCOCC4)c23)c1)C1(C(=O)Nc2ccc(F)c(Br)c2)CC1
2. O=C(Nc1cccc(-c2c[nH]c3ncnc(N4CCOCC4)c23)c1)c1cccn(-c2ccc(F)cc2)c1=O
Query: API: POST /compare with 1 and 2 ; response names the item with higher dTm. Write down the label of the entry you select.
Reply: 2

a. CC(=O)N1CCN(c2nc(Cl)nc3[nH]cc(-c4cccc(NC(=O)Nc5cc(C(C)(C)C)nn5-c5ccc(C)cc5)c4)c23)CC1
b. COc1cc(NC(=O)C2(C(=O)Nc3cccc(-c4c[nH]c5ncnc(N6CCOCC6)c45)c3)CC2)ccc1F
Query: Which record shows the lower dTm: the first, a , or the second, b ? Respond using the label that marks the chosen record.
Reply: a

###

- target-entity: LRRK2^RCKW (Homo sapiens, UniProt Q5S007)
- Construct: LRRK2 R1327 to E2527; His6-Z-tag (TEV cleavable) (N, cleaved yes); host or cells: Sf9 insect cells (baculovirus)
- Sequence (Q5S007 1327-2527): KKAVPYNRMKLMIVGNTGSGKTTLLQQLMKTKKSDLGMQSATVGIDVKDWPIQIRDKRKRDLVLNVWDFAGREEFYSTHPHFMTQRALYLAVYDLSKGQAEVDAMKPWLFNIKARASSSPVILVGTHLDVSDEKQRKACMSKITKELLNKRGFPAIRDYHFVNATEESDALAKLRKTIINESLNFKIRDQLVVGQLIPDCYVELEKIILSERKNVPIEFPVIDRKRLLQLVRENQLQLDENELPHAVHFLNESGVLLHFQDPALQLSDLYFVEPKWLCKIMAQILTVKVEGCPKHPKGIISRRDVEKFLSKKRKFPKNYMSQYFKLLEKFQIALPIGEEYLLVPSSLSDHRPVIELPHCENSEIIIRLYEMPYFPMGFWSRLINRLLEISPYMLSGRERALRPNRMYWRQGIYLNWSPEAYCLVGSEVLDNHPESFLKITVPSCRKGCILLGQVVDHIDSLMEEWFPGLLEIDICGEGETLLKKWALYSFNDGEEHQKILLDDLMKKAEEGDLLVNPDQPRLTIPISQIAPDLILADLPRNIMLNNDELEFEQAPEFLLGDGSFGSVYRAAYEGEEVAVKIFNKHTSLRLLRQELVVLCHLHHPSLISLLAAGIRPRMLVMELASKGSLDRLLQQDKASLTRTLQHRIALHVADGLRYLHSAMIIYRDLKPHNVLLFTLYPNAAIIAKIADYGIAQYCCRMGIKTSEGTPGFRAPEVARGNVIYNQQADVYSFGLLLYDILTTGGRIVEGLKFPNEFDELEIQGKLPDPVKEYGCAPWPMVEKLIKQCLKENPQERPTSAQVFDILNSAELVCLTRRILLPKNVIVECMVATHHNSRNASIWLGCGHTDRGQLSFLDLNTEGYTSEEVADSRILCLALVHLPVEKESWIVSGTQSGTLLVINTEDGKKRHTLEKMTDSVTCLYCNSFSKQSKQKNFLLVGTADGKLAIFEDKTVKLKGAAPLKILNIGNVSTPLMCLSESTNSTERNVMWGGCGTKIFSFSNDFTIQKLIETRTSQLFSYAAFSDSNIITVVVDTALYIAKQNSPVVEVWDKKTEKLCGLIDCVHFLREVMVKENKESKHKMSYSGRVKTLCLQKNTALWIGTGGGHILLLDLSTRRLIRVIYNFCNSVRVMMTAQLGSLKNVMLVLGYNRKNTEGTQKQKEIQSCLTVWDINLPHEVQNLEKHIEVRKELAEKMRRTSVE
- procedure-details: Biochemical LRRK2 activity assay (PhosphoSense, AssayQuant SOX peptide AQT0615)
- condition-details: LRRK2^RCKW kinase activity, in vitro
- Description: Two wells per compound were used as 0% (without protein and compound) and 100% (without compound) control. […] The 0% control wells were filled with 10 μl of pure reaction buffer. […] The fluorescence of the SOX-peptide after 360-nm excitation was measured at 487-nm emission with a PHERAstar plate reader (BMG Labtech). The IC50 values were calculated from a nonlinear regression of the log[inhibitor] versus the normalized response with GraphPad Prism 8 (www.graphpad.com/, RRID:SCR_002798).
pIC50: −log10 of the molar value.
readout: pIC50

Worked examples, 6 compounds total:
| record-smiles | number |
| --- | --- |
| CC(C)(C)c1cc(NC(=O)Nc2cccc(-c3c[nH]c4ncnc(N5CCOCC5)c34)c2)n(-c2ccc3ncccc3c2)n1 | 7.22 |
| COc1cc(S(C)(=O)=O)ccc1Nc1nc(N(C)C)c2c(Cl)c[nH]c2n1 | 8.14 |
| Cn1cc(NC(=O)C2(C(=O)Nc3cccc(-c4c[nH]c5ncnc(N6CCOCC6)c45)c3)CC2)cn1 | 5.68 |
| O=C(c1cccc(NC(=O)C2(C(=O)Nc3ccc(F)cc3)CC2)c1)c1c[nH]c2ncnc(N3CCOCC3)c12 | 6.04 |
| O=C(Nc1cccc(-c2c[nH]c3ncnc(N4CCOCC4)c23)c1)C1(C(=O)Nc2ccc(F)c(Br)c2)CC1 | 6.58 |
| Cc1ccc(-n2nc(C(C)(C)C)cc2NC(=O)Nc2cccc(-c3c[nH]c4ncnc(N5CCOCC5)c34)c2)cc1 | 7.69 |

A. O=C(Nc1cccc(-c2c[nH]c3ncnc(N4CCOCC4)c23)c1)C1(C(=O)Nc2ccc(F)c(F)c2)CC1
B. Cc1cc(F)ccc1NC(=O)C1(C(=O)Nc2cccc(-c3c[nH]c4ncnc(N5CCOCC5)c34)c2)CC1
C. Cc1ccc(NC(=O)C2(C(=O)Nc3cccc(-c4c[nH]c5ncnc(N6CCOCC6)c45)c3)CC2)cc1
D. CN1CCc2cc(NC(=O)C3(C(=O)Nc4cccc(-c5c[nH]c6ncnc(N7CCOCC7)c56)c4)CC3)ccc2C1
E. CC(=O)N1CCN(c2nc(Cl)nc3[nH]cc(-c4cccc(NC(=O)Nc5cc(C(C)(C)C)nn5-c5ccc(C)cc5)c4)c23)CC1
Query: Please list these in order of increasing pIC50. Thank you! Order the labels as requested and list them.
Reply: D, B, A, C, E

Numbers sourced from paper PMC12136037.
